System: OVCAR-5
test_method_notes: Growth inhibition of human OVCAR5 cells assessed as cell growth at 100 uM incubated for 48 hrs by sulforhodamine B assay relative to control
Format: functional
protocol_conditions: OVCAR-5, 48 h, read-out: Activity
measured_metric: growth at 100 µM

>>> observed("O=C(Nc1cccc(-n2cc(-c3ccncc3)c(-c3cc(O)cc(Cl)c3)n2)c1)c1cc(C(F)(F)F)cc(C(F)(F)F)c1")
"-32%"
>>> observed("COc1cc(Cl)cc(-c2nn(-c3cccc(NC(=O)Nc4ccc(Cl)c(C(F)(F)F)c4)c3)cc2-c2ccncc2)c1")
"-89%"
>>> observed("COc1cc(Cl)cc(-c2nn(-c3cccc(NC(=O)c4cccc(C(F)(F)F)c4)c3)cc2-c2ccncc2)c1")
"59%"
>>> observed("O=C(Nc1cccc(-n2cc(-c3ccncc3)c(-c3cc(O)cc(Cl)c3)n2)c1)Nc1ccc(Cl)c(Cl)c1")
"-80%"
>>> observed("COc1cc(Cl)cc(-c2nn(-c3cccc(NC(=O)Nc4ccc(Cl)c(Cl)c4)c3)cc2-c2ccncc2)c1")
"9%"
